protocol-summary: Cytotoxicity against HepG2
Type: cell-based
condition-parameters: human, HepG2 cells (ATCC HB-8065), 5 days exposure
measurement-kind: log10(CC50 at 5 days) (log10 of the value in µM)
Scale: log10; quantity: CC50 at 5 days; unit before log: µM

**Q:** Note log10(CC50 at 5 days) for the compound shown: NC(=O)c1ccc(-c2cnn3ccc(C(=O)N(c4ccc(F)c(F)c4)C4CC4)cc23)cc1
**A:** 1.49

**Q:** Note log10(CC50 at 5 days) for the compound shown: CNC(=O)c1ccc(-c2cnn3ccc(C(=O)N(C)c4ccc(C(F)(F)F)cc4)cc23)cc1
**A:** 0.91

**Q:** Note log10(CC50 at 5 days) for the compound shown: CC(Cn1cccn1)N(C(=O)c1ccn2ncc(-c3ccc(C(N)=O)cc3)c2c1)c1ccc(C#N)cn1 (centres unmarked)
**A:** 1.47

**Q:** Note log10(CC50 at 5 days) for the compound shown: N#Cc1ccc(N(C(=O)c2ccn3ncc(-c4ccc(C(N)=O)cn4)c3c2)C2CC2)nc1
**A:** 1.22

**Q:** Note log10(CC50 at 5 days) for the compound shown: CNC(=O)c1ccc(-c2cnn3ccc(N(C)C(=O)c4ccc(C#N)cn4)cc23)cc1
**A:** 1.49

**Q:** Note log10(CC50 at 5 days) for the compound shown: N#Cc1ccc(N(C(=O)c2ccn3ncc(-c4ccc(C(N)=O)cc4)c3c2)C2CC2)nc1
**A:** 1.37

**Q:** Note log10(CC50 at 5 days) for the compound shown: CNC(=O)c1ccc(-c2cnn3ccc(C(=O)N(c4ccc(C(F)(F)F)cn4)C4CCC4)cc23)cc1
**A:** 0.32

Origin of the recorded values: patent US20190030009A1
